These data points were gathered from ChEMBL document CHEMBL1821662.

Assay: AUC in SCID mouse at 60 mg/kg, ip
Format: ADME, organism-based
Parameters: dose 60 mg/kg, route intraperitoneal
Conditions: plasma
Property Label: AUC (µM·h)
Use µM·h as the unit, but write only the number.

q: So what does the record say about AUC for Cc1cc(Nc2nc(Sc3ccc(NC(=O)CN4C[C@H](Oc5ccc(F)cc5)[C@@H](O)C4)cc3)nn3cccc23)n[nH]1 ?
a: 47.5

====

System: HCT-116
Assay: Antiproliferative activity against human HCT116 cells
Assay type: functional, cell-based
# label = 1 if IC50 < 20 nM else 0

The following compounds have reported results that may help.
q: IC50 under 20 nM? Item: Cc1cc(Nc2nc(Sc3ccc(NC(=O)CN4CC(F)(F)C[C@H]4CO)cc3)nn3cccc23)n[nH]1
a: 0

q: IC50 under 20 nM? Item: COCCO[C@H]1CN(CC(=O)Nc2ccc(Sc3nc(Nc4cc(C)[nH]n4)c4cccn4n3)cc2)C[C@@H]1O
a: 0

Further cases:
q: IC50 under 20 nM? Item: Cc1cc(Nc2nc(Sc3ccc(NC(=O)C4CC4)cc3)nn3cc(NC(=O)CN4CCC[C@@H]4CO)cc23)n[nH]1
a: 0

q: IC50 under 20 nM? Item: Cc1cc(Nc2nc(Sc3ccc(NC(=O)CN4C[C@H](OC(C)(C)C(F)(F)F)[C@@H](O)C4)cc3)nn3cccc23)n[nH]1
a: 1

q: IC50 under 20 nM? Item: Cc1cc(Nc2nc(Sc3ccc(NC(=O)C4CC4)cc3)nn3cccc23)n[nH]1
a: 0

q: IC50 under 20 nM? Item: Cc1cc(Nc2nc(Sc3ccc(NC(=O)CN4C[C@H]5C[C@H]5[C@H]4CO)cc3)nn3cccc23)n[nH]1
a: 0

q: IC50 under 20 nM? Item: Cc1cc(Nc2nc(Sc3ccc(NC(=O)CN4C[C@H](N)C[C@H]4CO)cc3)nn3cccc23)n[nH]1
a: 0

q: IC50 under 20 nM? Item: Cc1cc(Nc2nc(Sc3ccc(NC(=O)CN4C[C@@H](F)C[C@H]4CO)cc3)nn3cccc23)n[nH]1
a: 0

q: IC50 under 20 nM? Item: Cc1cc(Nc2nc(Sc3ccc(NC(=O)CNC4CCCC4)cc3)nn3cccc23)n[nH]1
a: 0

q: IC50 under 20 nM? Item: Cc1cc(Nc2cc(N3CCN(C)CC3)nc(Sc3ccc(NC(=O)C4CC4)cc3)n2)n[nH]1 [TOZASERTIB]
a: 0

q: IC50 under 20 nM? Item: Cc1cc(Nc2nc(Sc3ccc(NC(=O)CN4CCOCC4)cc3)nn3cccc23)n[nH]1
a: 0

q: IC50 under 20 nM? Item: Cc1cc(Nc2nc(Sc3ccc(NC(=O)CN4C[C@H](Oc5ccc(F)cc5F)[C@@H](O)C4)cc3)nn3cccc23)n[nH]1
a: 1

q: IC50 under 20 nM? Item: CCC(C)(C)O[C@H]1CN(CC(=O)Nc2ccc(Sc3nc(Nc4cc(C)[nH]n4)c4cccn4n3)cc2)C[C@@H]1O
a: 1

q: IC50 under 20 nM? Item: Cc1cc(Nc2nc(Sc3ccc(NC(=O)C4CC4)cc3)nn3cc(NC(=O)N4CCN(C)CC4)cc23)n[nH]1
a: 0

q: IC50 under 20 nM? Item: Cc1cc(Nc2nc(Sc3ccc(NC(=O)CN4C[C@@H](O)[C@@H](Oc5ccc(F)cc5)C4)cc3)nn3cccc23)n[nH]1
a: 1

q: IC50 under 20 nM? Item: Cc1cc(Nc2nc(Sc3ccc(NC(=O)CN4C[C@H](OCC5CC5)[C@@H](O)C4)cc3)nn3cccc23)n[nH]1
a: 1
